Origin of values: ChEMBL document CHEMBL3988442

# System: Wolbachia pipientis
# experimental_details: Anti-Wolbachia Cell-Based Screen
# Assay type: functional
# Set-up: scale not given: in the data most compounds retested in dose-response had high values
# test_context: 5 µM
The whole screen tested about 48,000 compounds, of which about 13,000 (27%) showed an effect of 50% or more. This is one part of the list.
Recorded measurements of Percent Effect, one per entry
measured_attribute: Percent Effect (%)

O=c1cc(-c2ccc(F)cc2)nc2n1CCCCC2 = 114
COC(=O)C(NC(=O)c1cc(C)ccc1C)c1cccnc1 (centres undefined) = -6.12
CN(CCC1CCOCC1)C(=O)C1CCC(=O)N(Cc2ccccn2)C1 (centres undefined) = 12.01
CCSc1ncccc1C(=O)NCc1ccc(N(C)C)cc1 = 103
CS(=O)(=O)c1cc(Cl)cnc1C1CCN(C(=O)C2CC2)CC1 = 82.8
COc1ncccc1CN1CC[C@@]2(O)CCN(C(=O)C3CCC3)C[C@H]2C1 = 6.817
CS(=O)(=O)N1Cc2cnn(CC3CC3)c2C(COCC2CC2)C1.O=C(O)C(F)(F)F (centres undefined) = -10.17
CCOCC(=O)N1CCn2cc(CN(C)Cc3ccco3)nc2C1 = -7.292
CCCNC(=O)c1sc(Nc2ccc(Cl)cn2)nc1C = 11.67
CCC(=O)N1CCC(c2cncc(Oc3cccnc3)n2)CC1 = 118.9
NS(=O)(=O)c1ccc(F)c(C(=O)NCCSc2ccccn2)c1 = 2.11
CNC(=O)c1cccnc1NCc1ccc(Cn2cccn2)cc1 = -20.21
CN(Cc1cncnc1)Cc1cn2c(n1)CN(C1CCOC1)CC2.O=C(O)C(F)(F)F.O=C(O)C(F)(F)F (centres undefined) = -14.81
CCOCC1CN(Cc2cccnc2OC)Cc2cnn(C)c21.O=C(O)C(F)(F)F.O=C(O)C(F)(F)F.O=C(O)C(F)(F)F (centres undefined) = 2.379
CC(C)c1nnc2n1CCN(C(=O)c1cccc(OCC(N)=O)c1)C2 = -10.94
COCCC(=O)N1CCC(c2cncc(Oc3cccnc3)n2)CC1 = 116.7
CCN(CC)Cc1cnc2n1CCN(C1CCOC1)CC2 (centres undefined) = -1.376
O=C(NCC1CC1)C1CN(C(=O)c2ccnnc2)CC12CCOCC2 (centres undefined) = -9.874
NCC(=O)N1CCC(c2cncc(Oc3cccnc3)n2)CC1 = 115.4
Cc1ccc(N2CC[C@H]3CN(C(=O)c4ccn(C)n4)C[C@H]3C2)nn1.O=C(O)C(F)(F)F = -19.75
COc1ncccc1CN1C[C@@H]2C[C@@H](C(=O)NCC3CC3)N(C)[C@@H]2C1 = 96.26
CCn1ncc2c1C(COCC1CC1)CN(S(=O)(=O)N(C)C)C2.O=C(O)C(F)(F)F (centres undefined) = 4.655
CN(Cc1cccnc1)Cc1cn2c(n1)CN(C1CCOCC1)CC2 = 108.1
COCCn1ccnc1C1CCN(c2cccc(C(=O)O)n2)CC1 = -10.3
CN(Cc1cn2c(n1)CN(C1CCOC1)CC2)Cc1ccco1.O=C(O)C(F)(F)F.O=C(O)C(F)(F)F (centres undefined) = -12.79
CN(C)Cc1cn2c(n1)CN(C1CCOC1)CC2 (centres undefined) = 93.96
FC(F)(F)c1cccnc1N1CCC(OC2CCOCC2)CC1 = 1.629
Cn1ccnc1CN1C[C@H]2CN(S(C)(=O)=O)CCN2C1=O = -9.259
O=C(C1CC1)N1CCC(Oc2ccccc2Cl)CC1 = -14.42
Cc1cccc(N2CCN(CC(=O)N3CCCC(N(C)C)CC3)CC2)c1 (centres undefined) = -50.72
CNC(=O)CS(=O)(=O)C1CCN(S(=O)(=O)c2c(F)cccc2F)CC1 = 3.089
O=c1[nH]c(-c2ccc(F)cc2)nc2c1CCNC2 = -26.62
COc1ncccc1CN1C[C@H]2C[C@@H](C(=O)NCC3CC3)N(C)[C@H]2C1.O=C(O)C(F)(F)F.O=C(O)C(F)(F)F.O=C(O)C(F)(F)F = 107.4
COc1ncccc1CN1C[C@H]2CCN(c3ccc(C)nn3)C[C@H]2C1.O=C(O)C(F)(F)F = 107.5
CCOCC(=O)N1CCC(c2nc(-c3cccnn3)no2)CC1 = -10.28
COc1ccc(NC(=O)C2CCCO2)cc1OCc1cccnc1 (centres undefined) = 5.381
O=c1cc(-c2ccccc2)nc2n1CCCCC2 = 110.3
COc1ncccc1CN1CCC2(CCCN2S(C)(=O)=O)CC1.O=C(O)C(F)(F)F.O=C(O)C(F)(F)F = 2.287
COc1ncccc1CNC(=O)N1CCC(CNC(C)=O)CC1 = 18.77
O=C(c1cnc[nH]1)N1CCC(Oc2cccnc2)CC1 = -5.216
CC(C)(C)c1n[nH]cc1CNCC1CCN(CC(F)(F)F)C1.Cl (centres undefined) = -2.373
NC1(c2nc(-c3ccccc3)cc(=O)[nH]2)CCCC1 = -3.244
COCCOc1ccccc1CNCC1COC2(CCCC2)O1 (centres undefined) = 0.05602
COCCOCCNC(=O)c1ccc(N2CCC(C)=N2)cc1 = -11.91
